Test system: U2OS
testDetails: Multiplex assay against U2OS
Type: toxicity, cell-based
testContext: human, 24 h, 10 µM, compound concentration 10 uM, replicate 1
# Lookup of reported Population Healthy Nuclei (%) keyed by entry
# output: bare number, implied unit %

Task item: For the compound `CC(C)C[C@H](NC(=O)[C@H](Cc1ccccc1)NC(=O)CNC(=O)CNC(=O)[C@@H](N)Cc1ccc(O)cc1)C(=O)O` , report Population Healthy Nuclei (%).
Reply: 80

* * *

Tested on: Fibroblast
testDetails: Multiplex assay against human fibroblast
Type: toxicity, cell-based
testContext: 12 h, 1 µM, compound concentration 1 uM, replicate 2
Parameter threshold = 60%. Response is label 1 when Population Apoptotic (%) meets or exceeds it, else label 0.

A selection of reference data follows.
CCCCN(CC)c1nc(C)nc2c1c(C)cn2-c1c(C)cc(C)cc1C.Cl; label 0
COc1cc(Nc2ccnc3ccc(Br)cc23)cc(OC)c1OC; label 0
CC[C@@H]1C(=O)N(C)c2cnc(Nc3ccc(C(=O)NC4CCN(C)CC4)cc3OC)nc2N1C1CCCC1 [BI-2536]; label 1

Task item: Reported Population Apoptotic (%) at or above 60%? `CC(/C=C1\SC(=S)N(CCCC(=O)Nc2ccc(C(=O)O)c(O)c2)C1=O)=C\c1ccccc1`
Reply: label 0

Task item: hey, is Population Apoptotic (%) for this one >= 60%? `CN(c1cc(C(F)(F)F)nc(OCCC(=O)O)n1)c1cccc2c1CCC2`
Reply: label 0

Task item: Could you verify whether the entry `C=CC(=O)Nc1cc(-n2c(=O)ccc3cnc4ccc(-c5ccc(NS(C)(=O)=O)cc5)cc4c32)ccc1C` shows Population Apoptotic (%) of no less than 60%?
Reply: label 0

Task item: Entry `CCOC(=O)CCNc1cc(N2CCc3ccccc3CC2)nc(-c2ccccn2)n1` : is its Population Apoptotic (%) no less than 60%?
Reply: label 1

Task item: Is it the case that CCOc1ccn(-c2ccc(F)cc2)c(=O)c1C(=O)Nc1ccc(Oc2ccnc(N)c2Cl)c(F)c1 [BMS-777607] has Population Apoptotic (%) reaching or exceeding 60%?
Reply: label 1

Task item: Could you tell me if the measured Population Apoptotic (%) of CC[C@H](Nc1ncnc2[nH]cnc12)c1nc2cccc(F)c2c(=O)n1-c1ccccc1 [IDELALISIB] reaches 60% or more?
Reply: label 0
